# target system: Cannabinoid receptor 1 (Homo sapiens, UniProt P21554)
# Sequence (P21554 whole entry): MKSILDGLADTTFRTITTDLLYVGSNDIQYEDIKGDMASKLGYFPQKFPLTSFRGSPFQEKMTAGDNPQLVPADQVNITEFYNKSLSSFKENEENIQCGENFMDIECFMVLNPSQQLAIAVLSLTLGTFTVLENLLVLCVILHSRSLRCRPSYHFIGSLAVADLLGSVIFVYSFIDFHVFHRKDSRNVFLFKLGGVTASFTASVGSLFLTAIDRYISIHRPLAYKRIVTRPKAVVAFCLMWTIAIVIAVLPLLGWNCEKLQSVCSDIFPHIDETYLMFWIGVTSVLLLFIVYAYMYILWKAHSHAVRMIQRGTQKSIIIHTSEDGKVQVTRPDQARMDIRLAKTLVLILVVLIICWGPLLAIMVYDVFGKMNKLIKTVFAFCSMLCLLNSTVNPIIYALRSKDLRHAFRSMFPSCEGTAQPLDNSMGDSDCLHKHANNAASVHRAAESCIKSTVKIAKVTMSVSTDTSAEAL
# test details: Positive allosteric modulatory activity at human CB1R expressed in CHO-K1 cells assessed as increase in CP55940-induced beta-arrestin2 recruitment after 90 mins in presence of CP55940 at EC20 concentration by pathhunter beta-arrestin assay relative to control
# Format: cell-based
Listing of entries alongside the reported Emax.

- compound: "O=[N+]([O-])CC(c1cccc(F)c1)c1c(-c2ccccc2)[nH]c2ccccc12 (stereo not given)"
  Emax (%): 19
- compound: "O=[N+]([O-])CC(c1ccccc1)c1c(-c2ccccc2F)[nH]c2ccccc12 (stereo not given)"
  Emax (%): 7
- compound: "O=[N+]([O-])CC(c1ccccc1)c1c(-c2ccccc2)[nH]c2cc(F)ccc12 (stereo not given)"
  Emax (%): 38
- compound: "O=[N+]([O-])CC(c1ccccc1F)c1c(-c2cccc(F)c2)[nH]c2cc(F)ccc12 (stereo not given)"
  Emax (%): 71
- compound: "O=[N+]([O-])CC(c1ccc(F)cc1)c1c(-c2ccccc2)[nH]c2c(F)cccc12 (stereo not given)"
  Emax (%): 27
- compound: "O=[N+]([O-])CC(c1ccccc1)c1c(-c2ccccc2)[nH]c2ccc(F)cc12 (stereo not given)"
  Emax (%): 23
- compound: "O=[N+]([O-])CC(c1ccccc1)c1c(-c2ccccc2)[nH]c2cnccc12 (stereo not given)"
  Emax (%): 5.1
- compound: "O=[N+]([O-])CC(c1ccccc1)c1c(-c2ccncc2)[nH]c2ccccc12 (stereo not given)"
  Emax (%): 19
- compound: "O=[N+]([O-])CC(c1ccccc1)c1c(-c2ccccc2)[nH]c2cccc(F)c12 (stereo not given)"
  Emax (%): 37
- compound: "O=[N+]([O-])CC(c1ccccc1)c1c(-c2cccnc2)[nH]c2ccccc12 (stereo not given)"
  Emax (%): 9.2
- compound: "O=[N+]([O-])CC(c1cccnc1)c1c(-c2ccccc2)[nH]c2ccccc12 (stereo not given)"
  Emax (%): -8.1
- compound: "O=[N+]([O-])CC(c1ccccc1)c1c(-c2ccccc2)[nH]c2c(F)cccc12 (stereo not given)"
  Emax (%): 45
- compound: "O=[N+]([O-])CC(c1ccc(F)cc1)c1c(-c2ccccc2)[nH]c2cc(F)ccc12 (stereo not given)"
  Emax (%): 32
- compound: "O=[N+]([O-])CC(c1ccc(F)cc1)c1c(-c2cccc(F)c2)[nH]c2c(F)cccc12 (stereo not given)"
  Emax (%): 43
- compound: "O=[N+]([O-])CC(c1ccccc1)c1c(-c2ccc(F)cc2)[nH]c2ccccc12 (stereo not given)"
  Emax (%): -2.2
- compound: "O=[N+]([O-])CC(c1ccccc1)c1c(-c2ccccc2)[nH]c2ncccc12 (stereo not given)"
  Emax (%): 7
- compound: "O=[N+]([O-])CC(c1ccccn1)c1c(-c2ccccc2)[nH]c2ccccc12 (stereo not given)"
  Emax (%): 5.8
- compound: "O=[N+]([O-])CC(c1ccccc1F)c1c(-c2ccccc2)[nH]c2ccccc12 (stereo not given)"
  Emax (%): 63
- compound: "O=[N+]([O-])CC(c1ccccc1)c1c(-c2ccccc2)[nH]c2ccccc12 (racemic)"
  Emax (%): 46
- compound: "O=[N+]([O-])CC(c1ccccc1)c1c(-c2ccccc2)[nH]c2cccnc12 (stereo not given)"
  Emax (%): 30
